Tested on: blood platelet activating factor (PAF)
Test Summary: Inhibition of PAF-induced platelet aggregation in platelet-rich plasma (aggregometer)
Assay type: cell-based
Condition: rabbit platelet-rich plasma, 37° C., stirring; test substance added 2 minutes before PAF (4 nM, sub-maximum dosage); read-out: IC50 (concentration of the test substance which reduces to a half the aggregation of the blood platelets brought about by PAF)
pIC50: −log10 of the molar value.
Classification field: enter T for pIC50 values not below 6, F for values below it.

[[record]]
compound = "CCCCCCCCCCCCCCCCCCNC(=O)OC[C@H](COC(=O)OCC[n+]1ccccc1)OC(=O)OC"
assigned_class = "T"

[[record]]
compound = "CCCCCCCCCCCCCCCCCCNC(=O)OC[C@H](COC(=O)CCC[n+]1ccsc1)OC(=O)OC [Example 21f]"
assigned_class = "T"

[[record]]
compound = "CCCCCCCCCCCCCCCCCCOC(=O)NCC(COC(=O)CCC[n+]1ccccc1)OC(=O)OC (racemic)"
assigned_class = "T"

[[record]]
compound = "CCCCCCCCCCCCCCCCCCNC(=O)OCC(COC(=O)CCC[n+]1ccsc1)OC (racemic) [Example 20b]"
assigned_class = "T"

[[record]]
compound = "CCCCCCCCCCCCCCCCCCOC[C@H](COC(=O)OCC[n+]1ccccc1)OC(=O)NC"
assigned_class = "F"

[[record]]
compound = "CCCCCCCCCCCCCCCCCCNC(=O)OCC(COC(=O)CCC[n+]1ccccc1)OC(=O)OC (racemic) [Example 21a]"
assigned_class = "T"

[[record]]
compound = "CCCCCCCCCCCCCCCCCCOC[C@H](COC(=O)OCC[n+]1ccccc1)OC(=O)OC"
assigned_class = "F"


---

System: blood platelet activating factor (PAF)
Test Summary: Inhibition of PAF-induced platelet aggregation in platelet-rich plasma (aggregometer)
Assay type: cell-based
Condition: rabbit platelet-rich plasma, 37° C., stirring; test substance added 2 minutes before PAF (4 nM, sub-maximum dosage); read-out: IC50 (concentration of the test substance which reduces to a half the aggregation of the blood platelets brought about by PAF)
Measured Metric: IC50 (nM)

[[record]]
compound = "CCCCCCCCCCCCCCCCCCNC(=O)OC[C@@H](COC(=O)CCC[n+]1ccccc1)OC(=O)OC [Example 21b]"
endpoint_value = 200

[[record]]
compound = "CCCCCCCCCCCCCCCCCCNC(=O)OC[C@H](COC(=O)CCC[n+]1ccccc1)OC(=O)OC [Example 21d]"
endpoint_value = 200

[[record]]
compound = "CCCCCCCCCCCCCCCCCCNC(=O)OCC(COC(=O)CCC[n+]1ccsc1)NC(=O)OC (racemic) [Example 24]"
endpoint_value = 150

[[record]]
compound = "CCCCCCCCCCCCCCCCCCNC(=O)OCC(COC(=O)NCC[n+]1ccccc1)OC (racemic) [Example 7a]"
endpoint_value = 2000


---

System: blood platelet activating factor (PAF)
Test Summary: Inhibition of PAF-induced platelet aggregation in platelet-rich plasma (aggregometer)
Assay type: cell-based
Condition: rabbit platelet-rich plasma, 37° C., stirring; test substance added 2 minutes before PAF (4 nM, sub-maximum dosage); read-out: IC50 (concentration of the test substance which reduces to a half the aggregation of the blood platelets brought about by PAF)
Experimental: The aggregation of the blood platelets was measured with the aid of an aggregometer at 37° C. while stirring. […] The IC50 value (in μM) given in the following Table corresponds to that concentration of the test substance which reduces to a half the aggregation of the blood platelets brought about by PAF.
pIC50: −log10 of the molar value.
Measured Metric: pIC50

[[record]]
compound = "CCCCCCCCCCCCCCCCCCOC[C@H](COC(=O)CCC[n+]1ccccc1)OC(=O)NC"
endpoint_value = 5.80

[[record]]
compound = "CCCCCCCCCCCCCCCCCCOC[C@H](COC(=O)OCC[n+]1ccsc1)OC(=O)OC"
endpoint_value = 5.70

[[record]]
compound = "CCCCCCCCCCCCCCCCCCNC(=O)OC[C@@H](COC(=O)CCC[n+]1ccsc1)OC(=O)OC [Example 21e]"
endpoint_value = 7.40

[[record]]
compound = "CCCCCCCCCCCCCCCCCCOCC(COC(=O)CC[n+]1ccccc1)NC(=O)OC (racemic)"
endpoint_value = 5.52

[[record]]
compound = "CCCCCCCCCCCCCCCCCCNC(=O)OCC(COC(=O)OCC[n+]1ccccc1)OC (racemic)"
endpoint_value = 5.80

